# credit: PubChem BioAssay (NCATS)

- Target desc: Cytochrome P450 2D6 (Homo sapiens)
- Test protocol: Cytochrome P450 family 2 subfamily D member 6 (CYP2D6) small molecule antagonists: luciferase biochemical (cell-free) qHTS assay (AID 1645840); note: nearly all actives have a fitted effect of over 55% in size
- Protocol conditions: P450-Glo CYP2D6 enzyme, luciferin luminescence, 1 h; series mostly up to 57.4 µM
Results filed as inconclusive are left out. The source made the active and inactive calls. Calls come from the whole dose curve; as a rule, active = well fitted inhibition curve with a large enough effect in the repeat runs; inconclusive = weak or mixed curves; inactive = flat fitted curve, though single readings scatter.
Please state which outcome applies, choosing from active, inactive

Lookup: I would be grateful if you could indicate the recorded call for C[C@]12CCC(=O)C=C1CC[C@@H]1[C@@H]2C(=O)C[C@@]2(C)[C@H]1CC[C@]2(O)C(=O)CO .
Found: inactive

Lookup: I would be grateful if you could indicate the recorded call for CC(=O)Oc1cc(C(C)C)c(OCCN(C)C)cc1C .
Found: active

Lookup: I would be grateful if you could indicate the recorded call for N[C@@H](COP(=O)(O)O)C(=O)O .
Found: inactive

Lookup: I would be grateful if you could indicate the recorded call for COc1ccc2c(c1OC)C(=O)O[C@@H]2[C@H]1c2c(cc3c(c2OC)OCO3)CCN1C .
Found: active

Lookup: I would be grateful if you could indicate the recorded call for Nc1ncn([C@@H]2O[C@H](CO)[C@@H](O)[C@H]2O)c(=O)n1 .
Found: inactive

Lookup: I would be grateful if you could indicate the recorded call for CC(C)(C)NCC(O)c1cc(O)cc(O)c1 (stereo unspecified) .
Found: inactive

====

- Target desc: Arylsulfatase A (Homo sapiens)
- Test protocol: qHTS screen for enhancers of Arylsulfatase A (ASA1): LOPAC Validation Assay (AID 720538)
- Protocol conditions: ASA enzyme activity, LOPAC qHTS enhancer assay; series mostly up to 57.5 µM
Records with an inconclusive call do not appear. The source made the active and inactive calls. Calls come from the whole dose curve; as a rule, active = well fitted activation curve with a large enough effect; inconclusive = small, poorly fitted or top-dose-only effect; inactive = no such curve, though single readings can be large or run the other way.
Please state which outcome applies, choosing from 1 (yes) = active, 0 (no) = inactive

Lookup: I would be grateful if you could indicate the recorded call for O=C(O)CP(=O)(O)O .
Found: 0 (no)

Lookup: I would be grateful if you could indicate the recorded call for CCN(Cc1ccncc1)C(=O)C(CO)c1ccccc1 (stereo not given) .
Found: 0 (no)

Lookup: I would be grateful if you could indicate the recorded call for Cc1nc2ccccn2c(=O)c1CCN1CCC(C(=O)c2ccc(F)cc2)CC1 .
Found: 1 (yes)

Lookup: I would be grateful if you could indicate the recorded call for NC(N)=N/N=C/c1c(Cl)cccc1Cl .
Found: 0 (no)

Lookup: I would be grateful if you could indicate the recorded call for Cc1ccc(Cl)c(Nc2ccccc2C(=O)O)c1Cl .
Found: 0 (no)

Lookup: I would be grateful if you could indicate the recorded call for CN(C)CCN(Cc1cccs1)c1ccccn1 .
Found: 0 (no)

Lookup: I would be grateful if you could indicate the recorded call for C(=C\c1ccccc1)/CN1CCN(C(c2ccccc2)c2ccccc2)CC1 .
Found: 0 (no)

Lookup: I would be grateful if you could indicate the recorded call for CCc1cccc(N(C)C(N)=Nc2cccc3ccccc23)c1 .
Found: 0 (no)

Lookup: I would be grateful if you could indicate the recorded call for CC(C)(Oc1ccc(CCNC(=O)c2ccc(Cl)cc2)cc1)C(=O)O .
Found: 0 (no)

Lookup: I would be grateful if you could indicate the recorded call for CCOC(=O)C1=C(C)NC(C)=C(C(=O)OC)C1c1cccc([N+](=O)[O-])c1 (stereo not given) .
Found: 0 (no)

Lookup: I would be grateful if you could indicate the recorded call for c1ccc2c(c1)CCCC2C1=NCCN1 (stereo not given) .
Found: 0 (no)

Lookup: I would be grateful if you could indicate the recorded call for C[C@]12C=CC(=O)C=C1CC[C@H]1[C@@H]3C[C@@H](O)[C@](O)(C(=O)CO)[C@@]3(C)C[C@H](O)[C@@]12F .
Found: 0 (no)

Lookup: I would be grateful if you could indicate the recorded call for Fc1ccc(C(c2ccc(F)cc2)N2CCN(C/C=C/c3ccccc3)CC2)cc1 .
Found: 0 (no)

Lookup: I would be grateful if you could indicate the recorded call for COCCCC/C(=N\OCCN)c1ccc(C(F)(F)F)cc1 .
Found: 0 (no)

Lookup: I would be grateful if you could indicate the recorded call for CCCOc1ccccc1-c1nc2n[nH]nc2c(=O)[nH]1 .
Found: 0 (no)

Lookup: I would be grateful if you could indicate the recorded call for CCCN(CCC)C(=O)C(CCC(=O)O)NC(=O)c1ccccc1 (stereo not given) .
Found: 0 (no)

Lookup: I would be grateful if you could indicate the recorded call for CCO/C([O-])=N/c1c[n+](N2CCOCC2)no1 .
Found: 0 (no)

Lookup: I would be grateful if you could indicate the recorded call for CN1CCN(CC(=O)N2c3ccccc3C(=O)Nc3cccnc32)CC1 .
Found: 0 (no)

Lookup: I would be grateful if you could indicate the recorded call for COc1cc(Cc2cnc(N)nc2N)cc(OC)c1OC .
Found: 0 (no)

Lookup: I would be grateful if you could indicate the recorded call for CC(C)NNC(=O)c1ccncc1 .
Found: 0 (no)

Lookup: I would be grateful if you could indicate the recorded call for Cc1nnc(SCC2=C(C(=O)O)N3C(=O)[C@@H](NC(=O)Cn4cnnn4)[C@H]3SC2)s1 .
Found: 0 (no)

Lookup: I would be grateful if you could indicate the recorded call for CN1C(=O)CC[C@H]1c1cccnc1 .
Found: 0 (no)

Lookup: I would be grateful if you could indicate the recorded call for COc1ccc(CN(CCN(C)C)c2ccccn2)cc1 .
Found: 0 (no)

Lookup: I would be grateful if you could indicate the recorded call for CN(C)CCCN1c2ccccc2Sc2ccccc21 .
Found: 0 (no)

Lookup: I would be grateful if you could indicate the recorded call for CC(C)(C)NCC(O)c1cc(O)cc(O)c1 (stereo not given) .
Found: 0 (no)

Lookup: I would be grateful if you could indicate the recorded call for CN1C[C@H](C(=O)N[C@]2(C)O[C@@]3(O)[C@@H]4CCCN4C(=O)[C@H](Cc4ccccc4)N3C2=O)C[C@@H]2c3cccc4[nH]cc(c34)C[C@H]21 .
Found: 0 (no)

Lookup: I would be grateful if you could indicate the recorded call for CCCN(CCC)CCc1cccc2c1CC(=O)N2 .
Found: 0 (no)

Lookup: I would be grateful if you could indicate the recorded call for COc1cc(C(=O)OCCCN2CCCN(CCCOC(=O)c3cc(OC)c(OC)c(OC)c3)CC2)cc(OC)c1OC .
Found: 0 (no)

Lookup: I would be grateful if you could indicate the recorded call for CCn1nc(C(=O)O)c(=O)c2cc3c(cc21)OCO3 .
Found: 0 (no)

Lookup: I would be grateful if you could indicate the recorded call for OCCN1CCN(CCCN2c3ccccc3C=Cc3ccccc32)CC1 .
Found: 0 (no)

Lookup: I would be grateful if you could indicate the recorded call for CCCCNc1ccc(C(=O)OCCN(C)C)cc1 .
Found: 0 (no)

Lookup: I would be grateful if you could indicate the recorded call for O=C(O)CCCCCCCC(=O)O .
Found: 0 (no)

Lookup: I would be grateful if you could indicate the recorded call for CC1=C(C)C(=O)C(CCCCC#CCCCC#CCO)=C(C)C1=O .
Found: 0 (no)

Lookup: I would be grateful if you could indicate the recorded call for CCCCCN(CCCCC)C(=O)C(CCC(=O)O)NC(=O)c1ccc(Cl)c(Cl)c1 (stereo not given) .
Found: 0 (no)

Lookup: I would be grateful if you could indicate the recorded call for CO[C@@]1(NC(=O)CSCC#N)C(=O)N2C(C(=O)O)=C(CSc3nnnn3C)CS[C@@H]21 .
Found: 0 (no)

Lookup: I would be grateful if you could indicate the recorded call for CC(=O)Oc1cc(C(C)C)c(OCCN(C)C)cc1C .
Found: 0 (no)

Lookup: I would be grateful if you could indicate the recorded call for CN1CCN(C2=Nc3ccccc3Oc3ccc(Cl)cc32)CC1 .
Found: 0 (no)

Lookup: I would be grateful if you could indicate the recorded call for N[C@@H](COP(=O)(O)O)C(=O)O .
Found: 0 (no)

Lookup: I would be grateful if you could indicate the recorded call for CCC(=O)c1ccc2c(c1)N(CCCN(C)C)c1ccccc1S2 .
Found: 0 (no)

Lookup: I would be grateful if you could indicate the recorded call for O=C(CCCN1CCC(O)(c2cccc(C(F)(F)F)c2)CC1)c1ccc(F)cc1 .
Found: 0 (no)

Lookup: I would be grateful if you could indicate the recorded call for COc1ccc2c(c1OC)C(=O)O[C@@H]2[C@H]1c2c(cc3c(c2OC)OCO3)CCN1C .
Found: 0 (no)

Lookup: I would be grateful if you could indicate the recorded call for CNCCC(Oc1ccccc1OC)c1ccccc1 (stereo not given) .
Found: 0 (no)

Lookup: I would be grateful if you could indicate the recorded call for CCOC(=O)C1=C(C)NC(C)=C(C(=O)OC)C1c1cccc(Cl)c1Cl (stereo not given) .
Found: 0 (no)

Lookup: I would be grateful if you could indicate the recorded call for Cc1scc2c1N(C(=O)CN1CCN(C)CC1)c1ccccc1NC2=O .
Found: 0 (no)

Lookup: I would be grateful if you could indicate the recorded call for CCCCCCCC/C=C\CCCCCCCC(=O)NCc1ccc(O)c(OC)c1 .
Found: 0 (no)
